Reported pIC50 values follow for various compounds
# Test system: zidovudine-resistant HIV strain (HIVRTMC)
# ASSAY SUMMARY: Antiviral sensitivity (IC50) of zidovudine-resistant HIV strain
# Assay type: cell-based
# CONDITION DETAILS: Human immunodeficiency virus 1; HIVRTMC before introduction of mutation
pIC50: −log10 of the molar value.
ENDPOINT NAME: pIC50

[[record]]
compound = "Cc1cn([C@H]2C[C@H](N=[N+]=[N-])[C@@H](CO)O2)c(=O)[nH]c1=O [zidovudine, 3'-azido-3'-deoxythymidine]"
study_target = "zidovudine-resistant HIV strain (HIVRTMC)"
endpoint_name = "pIC50"
reported_result = 5.90

[[record]]
compound = "Nc1nc(=O)n([C@@H]2CS[C@H](CO)O2)cc1F [FTC]"
study_target = "zidovudine-resistant HIV strain (HIVRTMC)"
endpoint_name = "pIC50"
reported_result = 6.19

